# experimentDescription: Oral bioavailability in rat at […]
# Format: ADME, organism-based
# reportedConditions: in vivo
quantity: bioavailability (%)

compound	units	bioavailability
O=c1[nH]c(CN2CC(O)C2)nc2c1oc1ccc(Br)cc12	%	56
O=c1[nH]c(CN2CCC2)nc2c1oc1ccc(Br)cc12	%	77

###

# experimentDescription: Cmax in rat at 5 mg/kg, po
# Assay type: ADME, organism-based
# Set-up: dose 5 mg/kg, route oral
# reportedConditions: in vivo
quantity: Cmax (µM)

compound	value
CN1C[C@@H]2C[C@H]1CN2Cc1nc2c(oc3ccc(Br)cc32)c(=O)[nH]1	0.4

(I) O=c1[nH]c(CN2CC[C@@H](O)C2)nc2c1oc1ccc(Br)cc12
(II) N[C@@H]1CCN(Cc2nc3c(oc4ccc(Br)cc43)c(=O)[nH]2)C1
query: Pick one, I or II : lowest reported Cmax. Identify your pick by its label.
result: II

###

# experimentDescription: Half life in rat at 5 mg/kg, po
# Format: ADME, organism-based
# Design: dose 5 mg/kg, route oral
# reportedConditions: in vivo
quantity: half-life (h)

compound	quantity	units	value
CN1C[C@@H]2C[C@H]1CN2Cc1nc2c(oc3ccc(Br)cc32)c(=O)[nH]1	half-life	h	2.6

(a) N[C@@H]1CCN(Cc2nc3c(oc4ccc(Br)cc43)c(=O)[nH]2)C1
(b) O=c1[nH]c(CN2CC[C@@H](O)C2)nc2c1oc1ccc(Br)cc12
query: Pick one, a or b : lowest reported half-life. Identify your pick by its label.
result: a
(a: 1.6 h, b: 4.7 h)

###

# experimentDescription: Cmax in rat at […], po
# Format: ADME, organism-based
# Design: dose 2.5 mg/kg, route oral
# reportedConditions: in vivo
quantity: Cmax (nM)

(a) O=c1[nH]c(CN2CC(O)C2)nc2c1oc1ccc(Br)cc12
(b) O=c1[nH]c(CN2CCC2)nc2c1oc1ccc(Br)cc12
query: Two entries are listed, a and b . Which one carries the higher Cmax? Identify your pick by its label.
result: a
(a: 1200 nM, b: 800 nM)

###

# experimentDescription: Clearance in rat at 5 mg/kg
# Format: ADME, organism-based
# Design: dose 5 mg/kg
# reportedConditions: in vivo
quantity: clearance (mL/min/kg)

(1) N[C@@H]1CCN(Cc2nc3c(oc4ccc(Br)cc43)c(=O)[nH]2)C1
(2) O=c1[nH]c(CN2CC[C@@H](O)C2)nc2c1oc1ccc(Br)cc12
query: Two entries are listed, 1 and 2 . Which one carries the higher clearance? Identify your pick by its label.
result: 1

###

# experimentDescription: Volume of distribution in rat at 5 mg/kg
# Type: ADME, organism-based
# Parameters: dose 5 mg/kg
# reportedConditions: in vivo
quantity: Vd (L/kg)

compound	Vd / L/kg
CN1C[C@@H]2C[C@H]1CN2Cc1nc2c(oc3ccc(Br)cc32)c(=O)[nH]1	7.1

(a) O=c1[nH]c(CN2CC[C@@H](O)C2)nc2c1oc1ccc(Br)cc12
(b) N[C@@H]1CCN(Cc2nc3c(oc4ccc(Br)cc43)c(=O)[nH]2)C1
query: Pick one, a or b : lowest reported Vd. Identify your pick by its label.
result: a
